Hey, just so you know, these numbers are from patent US20240182536A1.

Listed next: entries and their corresponding Activity, +100 nM BP, DF-25000004.
# measured on: T1, IL-18 binding protein (IL-18BP) (UniProt O95998 31-194)
# T1 sequence (looked up): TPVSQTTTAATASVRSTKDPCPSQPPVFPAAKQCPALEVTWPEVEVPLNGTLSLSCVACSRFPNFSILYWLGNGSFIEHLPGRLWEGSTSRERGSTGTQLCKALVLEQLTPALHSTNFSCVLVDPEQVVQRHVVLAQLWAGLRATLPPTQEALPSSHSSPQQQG
# assay: cell-based or functional assay; note: unit not given here
Just the number, please.

Below: 5 binders and their reported Activity, +100 nM BP, DF-25000004.
# binder, test result
measured = [
    ("IL-18 variant G3R, L5W, E6H, D54Y, Q56H, N91R (ligand) YFRKWHSKLSVIRNLNDQVLFIDQGNRPLFEDMTDSDMRDNAPRTIFIISMYKYSHPRGMAVTISVKSEKISTLSSENKIISFKEMNPPDRIKDTKSDIIFFQRSVPGHDNKMQFESSSYEGYFLASEKERDLFKLILKKEDELGDRSIMFTVQNED", 0.08),
    ("IL-18 variant G3I, E6D, D54A, S55F, N91Y, R104H (ligand) YFIKLDSKLSVIRNLNDQVLFIDQGNRPLFEDMTDSDMRDNAPRTIFIISMYKAFQPRGMAVTISVKSEKISTLSSENKIISFKEMNPPDYIKDTKSDIIFFQHSVPGHDNKMQFESSSYEGYFLASEKERDLFKLILKKEDELGDRSIMFTVQNED", 0.74),
    ("IL-18 variant G3N, E6S, K53Q, D54W, S55R, N91T, R104T (ligand) YFNKLSSKLSVIRNLNDQVLFIDQGNRPLFEDMTDSDMRDNAPRTIFIISMYQWRQPRGMAVTISVKSEKISTLSSENKIISFKEMNPPDTIKDTKSDIIFFQTSVPGHDNKMQFESSSYEGYFLASEKERDLFKLILKKEDELGDRSIMFTVQNED", 0.14),
    ("IL-18 variant G3S, E6G, D54V, S55K, T63S, N91Y, R104T (ligand) YFSKLGSKLSVIRNLNDQVLFIDQGNRPLFEDMTDSDMRDNAPRTIFIISMYKVKQPRGMAVSISVKSEKISTLSSENKIISFKEMNPPDYIKDTKSDIIFFQTSVPGHDNKMQFESSSYEGYFLASEKERDLFKLILKKEDELGDRSIMFTVQNED", 0.32),
    ("IL-18 variant G3T, E6Q, K53G, D54G, S55H, T63A, S65T, N91R, R104Q (ligand) YFTKLQSKLSVIRNLNDQVLFIDQGNRPLFEDMTDSDMRDNAPRTIFIISMYGGHQPRGMAVAITVKSEKISTLSSENKIISFKEMNPPDRIKDTKSDIIFFQQSVPGHDNKMQFESSSYEGYFLASEKERDLFKLILKKEDELGDRSIMFTVQNED", 0.11),
]

Turning now to a further record.
Exercise: Give the measured Activity, +100 nM BP, DF-25000004 of IL-18 variant G3P, E6G, D54P, S55W, N91E, R104K (ligand) YFPKLGSKLSVIRNLNDQVLFIDQGNRPLFEDMTDSDMRDNAPRTIFIISMYKPWQPRGMAVTISVKSEKISTLSSENKIISFKEMNPPDEIKDTKSDIIFFQKSVPGHDNKMQFESSSYEGYFLASEKERDLFKLILKKEDELGDRSIMFTVQNED .
Key: 0.07
